# protocol-text: gradient 5% acetonitrile 3 min, to 50% in 2 min, to 85% in 15 min, held 3 min, 100 µL/min
# measurement-parameters: column: Zorbax Extend-C18 2.1 x 50 mm; eluents: water / acetonitrile, 0.1% formic acid
quantity-measured: RP-LC retention time (s)
Only the number, expressed in s, is required.

Looking up COc1cccc(S(=O)(=O)N2CCN(C3=CC4=NC(C)CN4C=N3)CC2)c1 (configuration not stated) , I see its RP-LC retention time listed as 648

Looking up O=C(NCc1ccc(-c2noc(-c3ccc(F)c(F)c3)n2)s1)C1CC1 , I see its RP-LC retention time listed as 903

Looking up CCC(=O)N1c2ccccc2NC2=C(C(=O)CC(C)(C)C2)C1c1ccc(C#N)cc1 (configuration not stated) , I see its RP-LC retention time listed as 797

Looking up COCCN1CCC2(CC1)CN(Cc1ccccc1OC(C)C)Cc1ccccc1O2 , I see its RP-LC retention time listed as 611

Looking up CCOC(=O)CNC(=O)Nc1cccc(-c2nnc(Cc3ccc(C)cc3)o2)c1 , I see its RP-LC retention time listed as 867

Looking up COc1ccc(-c2noc(-c3nn(-c4ccc(C)c(C)c4)ccc3=O)n2)cc1OC , I see its RP-LC retention time listed as 886

Looking up COc1cccc(NC(=O)Cn2nc3c(N(C)C4CCCCC4)nccn3c2=O)c1 , I see its RP-LC retention time listed as 745

Looking up COc1ccc(CNC2=NCCNC23CCN(S(=O)(=O)c2ccc(C)c(C)c2)CC3)cc1 , I see its RP-LC retention time listed as 775

Looking up Cc1ccc(N2CC(c3noc(-c4ccoc4)n3)CC2=O)cc1 (configuration not stated) , I see its RP-LC retention time listed as 868

Looking up O=C(Cc1ccccc1Cl)NC(c1ccccc1)c1nnc(N2CCCCC2)o1 (configuration not stated) , I see its RP-LC retention time listed as 899

Looking up CCc1ccccc1NC(=O)CSc1nccc(N2CCN(c3cc(C)ccc3C)CC2)n1 , I see its RP-LC retention time listed as 1060

Looking up CC1CCN(C(=O)CN2C(=O)C3CCCCN3c3ccc(S(=O)(=O)N(C)C)cc32)CC1 (configuration not stated) , I see its RP-LC retention time listed as 910

Reference source for all entries: the METLIN SMRT retention time set (Domingo-Almenara et al. 2019)
